tested on: Swiss CD-1 female mice; test: Nephrotoxicity study, histopathological scoring of kidney lesions; assay type: in vivo; conditions: Table 8; 12 mg/Kg every 2 hours × 6 sc, total 72 mg/Kg; 3 mice
QUANTITY: Tubular necrosis, Partial AS
Respond with the number and no other words.

Reference set (3 entries):
Heptanoyl-Dab-Thr-Dab-cyclo(S-S)[Cys-Dab-DAoc-Nle-Dab-Dab-DCys] [compound 3]; 3
Decanoyl-Dab-Thr-Dab-cyclo(S-S)[Cys-Dab-DPhe-Nle-Dab-Dab-DCys] [compound 2]; 0
DAoc-Thr-Dab-cyclo(S-S)[Cys-Dab-DNIe-Leu-Dab-Dab-DCys] [compound 5]; 0

Let us move to another entry and its Tubular necrosis, Partial AS.
Please fill in: Tubular necrosis, Partial AS reported for Nonanoyl-Dab-Thr-Dab-cyclo(S-S)[Cys-Dab-DPhe-Leu-Dab-Dab-Cys] [compound 1] = 0
